Data provenance: ChEMBL document CHEMBL4382291

The following compounds are listed with their measured IC50 values.
- SYSTEM: Tyrosine-protein kinase BTK (Homo sapiens, UniProt Q06187)
- Sequence (Q06187 whole entry): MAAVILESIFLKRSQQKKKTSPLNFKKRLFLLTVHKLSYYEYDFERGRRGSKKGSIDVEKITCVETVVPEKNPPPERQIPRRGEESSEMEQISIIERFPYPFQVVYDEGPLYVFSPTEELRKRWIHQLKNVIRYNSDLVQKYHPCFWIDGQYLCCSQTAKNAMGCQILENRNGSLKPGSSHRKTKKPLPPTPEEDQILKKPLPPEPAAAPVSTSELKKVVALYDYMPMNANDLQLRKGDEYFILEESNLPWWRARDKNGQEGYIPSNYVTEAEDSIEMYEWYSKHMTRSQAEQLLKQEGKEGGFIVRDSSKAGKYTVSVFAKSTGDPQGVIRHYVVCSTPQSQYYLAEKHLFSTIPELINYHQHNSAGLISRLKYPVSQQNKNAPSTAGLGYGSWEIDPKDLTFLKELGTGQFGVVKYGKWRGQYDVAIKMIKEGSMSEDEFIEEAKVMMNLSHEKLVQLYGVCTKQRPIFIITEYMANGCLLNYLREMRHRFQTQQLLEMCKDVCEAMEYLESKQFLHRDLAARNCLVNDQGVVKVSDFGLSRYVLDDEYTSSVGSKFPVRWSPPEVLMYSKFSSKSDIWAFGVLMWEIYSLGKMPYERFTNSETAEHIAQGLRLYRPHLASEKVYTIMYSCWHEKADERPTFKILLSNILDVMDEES
- PROTOCOL DESCRIPTION: Inhibition of BTK in human whole blood assessed as reduction in anti-human IgE antibody-stimulated histamine release pretreated for 2 hrs followed by anti-human IgE antibody-stimulation and measured after 30 mins by ELISA
- Type: tissue-based
MEASUREMENT TYPE: IC50 (µM)

>>> assay_value("N#CN1CCC[C@@H](n2nc(-c3ccc(Oc4ccc(F)cc4F)cc3)c(C(N)=O)c2N)C1")
0.064
>>> assay_value("N#CN1CCC[C@@H](n2nc(-c3ccc(Oc4ccc(Cl)cn4)cc3)c(C(N)=O)c2N)C1")
0.095
>>> assay_value("N#CN1CCC[C@@H](n2nc(-c3ccc(Oc4ccc(Cl)cc4)cc3)c(C(N)=O)c2N)C1")
0.021
>>> assay_value("N#CN1CCC[C@@H](n2nc(-c3ccc(Oc4cccc(C(F)(F)F)n4)cc3)c(C(N)=O)c2N)C1")
0.042
>>> assay_value("N#CN1CCC[C@@H](n2nc(-c3ccc(Oc4ncc(Cl)cc4F)cc3)c(C(N)=O)c2N)C1")
0.05
